Reported pIC50 is given for each of the following molecules.
target: HCV polymerase (NS5B) type 1b (Hepatitis C virus genotype 1b); construct: a region encoding NS5B (J Virol 1991 March, 65(3), 1105-13, 544 amino acids after deletion of 47 amino acids on the C-terminal); 6xHis (C); made in house; host or cells: Escherichia coli; test: Assay of enzyme (HCV polymerase) inhibitory activity, type 1b enzyme; format: biochemical, HCV BK strain (type 1b); conditions: HCV polymerase inhibitory activity IC50, 1b, type 1b enzyme
pIC50: −log10 of the molar value.

O=C(NCc1ccc(OC(F)(F)F)cc1)[C@H]1CN(c2nn3c(C(F)(F)F)cc(=O)nc3s2)CCN1S(=O)(=O)c1ccc(C(F)(F)F)cc1 [Example 1067]: > 7.00
CC(=O)N1CCC(CNC(=O)[C@H]2CN(C(C)=O)CCN2S(=O)(=O)c2ccc(OC(F)(F)F)cc2)CC1 [Example 670]: < 6.00
CCC(F)(F)c1ccc(CNC(=O)[C@H]2CN(c3nc4cnncc4s3)CCN2S(=O)(=O)c2ccc(OC(F)(F)F)cc2)cc1 [Example 694]: > 7.00
CCC(C)(C)c1ccc(CNC(=O)[C@H]2CN(c3cnc4cncc(C(=O)O)c4n3)CCN2S(=O)(=O)c2ccc(Cl)s2)cc1 [Example 858]: > 7.00
O=C(NCc1ccc(OC(F)(F)F)cc1)[C@H]1CNCCN1S(=O)(=O)c1ccc(OC(F)(F)F)cc1 [Example 783]: < 6.00

Request: Write down pIC50 measured for item Cn1ncc2nc(N3CCN(S(=O)(=O)c4ccc(OC(F)(F)F)cc4)[C@@H](C(=O)NCc4ccc(OC(F)(F)F)cc4)C3)sc2c1=O [Example 904]
Result: > 7.00

Request: Please report pIC50 for the following molecule: Nc1nc(Cl)nc2nc(N3CCN(S(=O)(=O)c4ccc(OC(F)(F)F)cc4)[C@@H](C(=O)NCc4ccc(OC(F)(F)F)cc4)C3)sc12 [Example 962]
Result: > 7.00

Request: Return pIC50 (reported value) for this molecule: O=C(NCc1ccc(OC(F)(F)F)cc1)[C@H]1CN(c2cnc3cnccc3n2)CCN1S(=O)(=O)c1ccc([N+](=O)[O-])cc1 [Example 754]
Result: > 7.00

Request: Return pIC50 (reported value) for this molecule: O=C(O)c1cccc2ncc(N3CCN(S(=O)(=O)c4ccc(OC(F)(F)F)cc4)[C@@H](C(=O)NCc4ccc(OC(F)(F)F)cc4)C3)nc12 [Example 781]
Result: > 7.00

Request: Provide measured pIC50 value, entry: CC[N+](CC)(CC)Cc1cnc(N2CCN(S(=O)(=O)c3ccc(OC(F)(F)F)cc3)[C@@H](C(=O)NCc3ccc(C(C)(C)C)cc3)C2)cn1 [Example 1095]
Result: 6.00 to 7.00

Request: Note pIC50 for the molecule shown: O=C(NCc1ccc(OC(F)(F)F)cc1)[C@H]1CN(c2ccc3ncccc3n2)CCN1S(=O)(=O)c1ccc(OC(F)(F)F)cc1 [Example 793]
Result: > 7.00

Request: Return pIC50 (reported value) for this molecule: O=C(NCc1ccc(OC(F)(F)F)cc1)[C@H]1CN(c2nc3nc(C4CC4)ncc3s2)CCN1S(=O)(=O)c1ccc(OC(F)F)cc1 [Example 1016]
Result: > 7.00

Request: For the molecule O=C(NCc1ccc(OC(F)(F)F)cc1)[C@H]1CN(c2nn3cnnc3s2)CCN1S(=O)(=O)c1ccc(OC(F)(F)F)cc1 [Example 922] , report pIC50.
Result: > 7.00

Request: For the molecule CCCc1ccc(CNC(=O)[C@H]2CN(c3nc4c(C(=O)O)cncc4s3)CCN2S(=O)(=O)c2ccc(CC)cc2)cc1 [Example 1065] , report pIC50.
Result: > 7.00

Request: Consider the molecule O=C(NCc1ccc(OC(F)(F)F)cc1)[C@H]1CN(c2cnc3cccnc3n2)CCN1S(=O)(=O)c1ccc(OC(F)(F)F)cc1 [Example 770] and give its recorded pIC50.
Result: > 7.00

----------
biological target: HCV polymerase (NS5B) type 1b (Hepatitis C virus genotype 1b); construct: a region encoding NS5B (J Virol 1991 March, 65(3), 1105-13, 544 amino acids after deletion of 47 amino acids on the C-terminal); 6xHis (C); made in house; host or cells: Escherichia coli; assay: Assay of enzyme (HCV polymerase) inhibitory activity, type 1b enzyme; type: biochemical, HCV BK strain (type 1b); conditions: HCV polymerase inhibitory activity (IC50), 1b, type 1b enzyme 0.5 μg/ml, 25° C., 60 min
pIC50: −log10 of the molar value. Structures can show the parent of a compound that is named as a salt.
MEASURED PROPERTY: pIC50

Cc1nc(N2CCN(S(=O)(=O)c3ccc(OC(F)(F)F)cc3)[C@@H](C(=O)NCc3ccc(N4CCCC4)nc3)C2)sc1C(=O)O: > 7.00
COC(=O)c1cnc(N2CCN(S(=O)(=O)c3ccc(C(F)(F)F)cc3)[C@@H](C(=O)NCc3ccc(C(C)C)cc3)C2)c(C)n1: 6.00 to 7.00
CC(C)c1ccc(CNC(=O)[C@H]2CN(C(=O)Cc3ccccc3)CCN2S(=O)(=O)c2ccc(C(F)(F)F)cc2)cc1: 6.00 to 7.00
CN(C)c1ccc(CNC(=O)[C@H]2CN(c3cnc(C(=O)O)cn3)CCN2S(=O)(=O)c2ccc(OC(F)(F)F)cc2)cn1: > 7.00
CC(=O)N1CCN(S(=O)(=O)c2ccc(Oc3cccnc3)cc2)C(C(=O)NCc2ccc(C(F)(F)F)cc2)C1 (stereo not drawn) [Example 66, hydrochloride]: < 6.00

Request: Look up and report measured pIC50 for this entry: "CCC(F)(F)c1ccc(CNC(=O)[C@H]2CN(C(=O)Nc3ccnc(C(=O)NC4CC4)c3)CCN2S(=O)(=O)c2ccc(OC(F)(F)F)cc2)cc1"
Result: > 7.00

----------
target: HCV polymerase (NS5B) type 1b (Hepatitis C virus genotype 1b); construct: a region encoding NS5B (J Virol 1991 March, 65(3), 1105-13, 544 amino acids after deletion of 47 amino acids on the C-terminal); 6xHis (C); made in house; host or cells: Escherichia coli; experiment: Assay of enzyme (HCV polymerase) inhibitory activity, type 1b enzyme; assay type: biochemical, HCV BK strain (type 1b); conditions: HCV polymerase inhibitory activity IC50, 1b, type 1b enzyme
pIC50: −log10 of the molar value.
Items are presented alongside their recorded pIC50.

O=C(NCc1ccc(OC(F)(F)C(F)F)cc1)[C@H]1CN(c2nc3cn[nH]c(=O)c3s2)CCN1S(=O)(=O)c1ccc(OC(F)(F)F)cc1 [Example 898]: > 7.00
CCCc1ccc(CNC(=O)[C@H]2CN(c3ccc(C(=O)O)c(C)n3)CCN2S(=O)(=O)c2ccc(OC(F)(F)F)cc2)cc1 [Example 822]: > 7.00

As a next step, examine the molecule that follows.
Request: Read the entry O=C(NCc1ccc(OC(F)(F)F)cc1)[C@H]1CN(c2nc3cn[nH]c(=O)c3s2)CCN1S(=O)(=O)c1ccc(OC(F)(F)F)cc1 [Example 805] and write its reported pIC50.
Result: > 7.00

----------
target: HCV polymerase (NS5B) type 1a (Hepatitis C virus genotype 1a, UniProt P26664); construct: made in house; host or cells: Escherichia coli (by the 'similar method' of the 1b enzyme); assay: Assay of enzyme (HCV polymerase) inhibitory activity, type 1a enzyme; format: biochemical, HCV type 1a (cloned from the blood of patients); conditions: HCV polymerase inhibitory activity IC50, 1a, type 1a enzyme
MEASURED PROPERTY: IC50

CC(C)c1cc(=O)nc2sc(N3CCN(S(=O)(=O)c4ccc(OC(F)(F)F)cc4)[C@@H](C(=O)NCc4ccc(OC(F)F)cc4)C3)nn12: < 100 nM

Request: Retrieve IC50 measured for "CCCc1ccc(CNC(=O)[C@H]2CN(C(=O)Nc3ccccc3C(=O)O)CCN2S(=O)(=O)c2ccc(OC(F)(F)F)cc2)cc1" and print it.
Result: > 1000 nM

Request: Assign IC50 to the following record: "CCC(F)(F)c1ccc(CNC(=O)[C@H]2CN(c3nc4nc(C)nc(Cl)c4s3)CCN2S(=O)(=O)c2ccc(OC(F)(F)F)cc2)cc1"
Result: < 100 nM

----------
target: HCV polymerase (NS5B) type 1a (Hepatitis C virus genotype 1a, UniProt P26664); construct: made in house; host or cells: Escherichia coli (by the 'similar method' of the 1b enzyme); assay: Assay of enzyme (HCV polymerase) inhibitory activity, type 1a enzyme; format: biochemical, HCV type 1a (cloned from the blood of patients); details: HCV polymerase inhibitory activity IC50, 1a, type 1a enzyme
pIC50: −log10 of the molar value.
MEASURED PROPERTY: pIC50

Illustrative cases are given below, each with its answer.
CCCc1ccc(CNC(=O)[C@H]2CN(c3cnc4cnccc4n3)CCN2S(=O)(=O)c2ccc(I)cc2)cc1: > 7.00
O=C(NCc1ccc(OC(F)(F)F)cc1)[C@H]1CN(c2nn3cnnc3s2)CCN1S(=O)(=O)c1ccc(C(F)(F)F)cc1: > 7.00

Continue with the next compound.
Request: Fill in pIC50 for record "COc1nncc2sc(N3CCN(S(=O)(=O)c4ccc(OC(F)(F)F)cc4)[C@@H](C(=O)NCc4ccc(OC(F)(F)F)cc4)C3)nc12"
Result: > 7.00
